Subject Of Test: UniProt:P10721
Sequence (P10721 26-976): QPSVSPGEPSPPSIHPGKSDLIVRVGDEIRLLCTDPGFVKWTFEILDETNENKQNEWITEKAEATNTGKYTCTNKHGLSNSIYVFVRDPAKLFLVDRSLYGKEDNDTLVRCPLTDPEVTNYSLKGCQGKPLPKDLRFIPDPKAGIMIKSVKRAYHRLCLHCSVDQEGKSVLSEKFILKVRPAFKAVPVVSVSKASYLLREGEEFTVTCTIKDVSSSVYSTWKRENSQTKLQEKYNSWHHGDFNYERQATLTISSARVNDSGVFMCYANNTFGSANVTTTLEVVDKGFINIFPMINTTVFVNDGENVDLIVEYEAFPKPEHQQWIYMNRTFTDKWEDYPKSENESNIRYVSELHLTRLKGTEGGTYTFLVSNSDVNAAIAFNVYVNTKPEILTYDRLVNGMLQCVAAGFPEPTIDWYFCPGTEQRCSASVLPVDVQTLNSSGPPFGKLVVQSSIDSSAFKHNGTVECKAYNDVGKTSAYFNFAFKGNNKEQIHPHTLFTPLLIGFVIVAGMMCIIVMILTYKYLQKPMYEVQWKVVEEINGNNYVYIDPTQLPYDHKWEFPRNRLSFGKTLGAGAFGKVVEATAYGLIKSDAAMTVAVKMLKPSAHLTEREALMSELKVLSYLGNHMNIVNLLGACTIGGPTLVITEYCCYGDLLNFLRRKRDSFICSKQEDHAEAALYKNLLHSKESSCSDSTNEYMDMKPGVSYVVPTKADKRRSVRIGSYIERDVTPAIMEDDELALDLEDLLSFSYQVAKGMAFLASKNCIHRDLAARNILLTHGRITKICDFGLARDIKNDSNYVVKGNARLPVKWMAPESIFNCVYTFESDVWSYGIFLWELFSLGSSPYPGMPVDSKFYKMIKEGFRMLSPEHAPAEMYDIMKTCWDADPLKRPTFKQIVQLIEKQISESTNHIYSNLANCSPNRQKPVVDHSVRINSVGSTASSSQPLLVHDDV
Protocol Notes: Off-chip mobility-shift kinase assay (Caliper LABCHIP), C-kit
Run Conditions: concentration 3.0E−05
Quantity Measured: C-kit AVG % Activity at 3.0E−05 (%)
Enter your answer as a number in %; do not include the unit.

Some solved cases for reference:
>  <Molecule>
COCCOCCOCCOCCOCCOCCOCCNCc1ccc(C(=O)Nc2ccc(C)c(Nc3nccc(-c4cccnc4)n3)c2)cc1

>  <Units Of Measure>
%

>  <Number>
1

$$$$
>  <Molecule>
COCCOCCOCCOCCOCCOCCOCCOCCOCCN1CCN(Cc2ccc(C(=O)Nc3ccc(C)c(Nc4nccc(-c5cccnc5)n4)c3)cc2)CC1 [mPEG9-N′-Imatinib]

>  <Units Of Measure>
%

>  <Number>
0

$$$$
>  <Molecule>
COCCOCCOCCOCCOCCOCCOCCOCCOCCNCc1ccc(C(=O)Nc2ccc(C)c(Nc3nccc(-c4cccnc4)n3)c2)cc1 [mPEG9-N-Imatinib]

>  <Units Of Measure>
%

>  <Number>
2

$$$$
>  <Molecule>
COCCOCCOCCOCCOCCOCCOCCN1CCN(Cc2ccc(C(=O)Nc3ccc(C)c(Nc4nccc(-c5cccnc5)n4)c3)cc2)CC1 [mPEG7-N′-Imatinib]

>  <Units Of Measure>
%

>  <Number>
4

$$$$

Shift focus to the following entry.
## Input // fetch C-kit AVG % Activity at 3.0E−05 given entry COCCOCCOCCOCCOCCNCc1ccc(C(=O)Nc2ccc(C)c(Nc3nccc(-c4cccnc4)n3)c2)cc1 [mPEG5-N-Imatinib]
## Output 0
